biological target: PcrV of the Type III secretion system on P. aeruginosa strain PA103 (Pseudomonas aeruginosa strain PA103); experiment: cell-based or functional assay
Answer each item with its documented IC50 (nM), TTSS-dependent cytotoxicity assay (PA103 killing of P3-X63-Ag8 cells).
Give the figure together with its unit, number first.

Fab SEQ ID NOs 3, 4 (Fab, V domains shown) VH: QVQLVESGGGVVQPGGSLRLSCAASGFTFSTAGMHWVRQAPGKGLEWVAVIWYNGKEISYADSVKGRFTVSRDNPKNTLYLQMSSLRTEDTAVYYCARNRGDIYYDFTYAMDIWGQGTMVTVSS VL: DIQMTQSPSSLSASVGDRVTITCRASQSISRWVAWYQQRPGKAPNLLIYDASSLKSGVPSRFSGSGSGTEFTLTISSLQPEDIATYYCQQFWSTPYTFGQGTKLEIK = 35.1 nM

Hi there! I need IC50 (nM), TTSS-dependent cytotoxicity assay (PA103 killing of P3-X63-Ag8 cells) for each item below, if you can.
1. Fab SEQ ID NOs: 13, 37 (Fab, V domains shown) VH: QVQLVESGGGVVQPGRSLRLSCAASGFTFSSYPLHWVRQAPGKGLEWVSFISYDGSEKYYASSVKGRFTISRDNSENTLYLQMNSLRPEDTAVYYCARNRGDIYYDFTYAMDIWGQGTMVTVSS VL: DIQMTQSPSSLSASVGDRVTITCRASQSISRWVAWYQQRPGKAPNLLIYDASSLKSGVPSRFSGSGSGTEFTLTISSLQPEDIATYYCQQFWGTPYTFGQGTKLEIK
2. Fab SEQ ID NOs. 24, 26 (Fab, V domains shown) VH: EVQLVESGGGVVQPGRSLRLSCAASGFTFSNYPMHWVRQAPGKGLEWVAVISYDGSEKWYADSVKGRFTISRDNSKNTLYLEMNSLRPEDTAVYYCARNRGDIYYDFTYAMDIWGQGTTVTVSS VL: DIQLTQSPSTLSASVGDSVTITCRASEGVDRWLAWYQQKPGRAPKLLIYDASTLQSGVPSRFSGSGSGTEFSLTISSLQPDDVATYYCQHFWGTPYTFGQGTKLEIK
3. Fab SEQ ID NOs: 13, 4 (Fab, V domains shown) VH: QVQLVESGGGVVQPGRSLRLSCAASGFTFSSYPLHWVRQAPGKGLEWVSFISYDGSEKYYASSVKGRFTISRDNSENTLYLQMNSLRPEDTAVYYCARNRGDIYYDFTYAMDIWGQGTMVTVSS VL: DIQMTQSPSSLSASVGDRVTITCRASQSISRWVAWYQQRPGKAPNLLIYDASSLKSGVPSRFSGSGSGTEFTLTISSLQPEDIATYYCQQFWSTPYTFGQGTKLEIK

1. 12 nM
2. 25.5 nM
3. 20 nM

Entry source: patent US20090191186A1
